# System: U-937 cells
# experimental protocol: Induction of apoptosis by hit compounds (Annexin V-FITC/propidium iodide flow cytometry)
# Format: cell-based
# protocol conditions: Homo sapiens, 7.5 μM compound, 24 hours
experimental readout: cytotoxicity at 7.5 µM
Please don't drop the unit; write it after the number.

// query Return value of cytotoxicity at 7.5 µM for input C=CCc1cccc(/C=N/NC(=O)CN2CCN(Cc3ccccc3)CC2)c1O , no commentary.
// result 21%

// query Fill in cytotoxicity at 7.5 µM for record CCc1ccc(CN2CCN(CC(=O)N/N=C/c3cc(C(C)(C)C)cc(C(C)(C)C)c3O)CC2)cc1
// result 70%

// query Look up and state reported cytotoxicity at 7.5 µM for C=CCc1cccc(/C=N/NC(=O)CN2CCN(Cc3ccc(C(C)(C)C)cc3)CC2)c1O
// result 83%

// query Name the recorded cytotoxicity at 7.5 µM of the compound listed here: CC(C)(C)c1cc(/C=N/NC(=O)CN2CCN(Cc3ccc4ccccc4c3)CC2)c(O)c(C(C)(C)C)c1
// result 50%

// query // fetch cytotoxicity at 7.5 µM given entry COc1ccc(CN2CCN(CC(=O)N/N=C/c3cc(C(C)(C)C)cc(C(C)(C)C)c3O)CC2)cc1
// result 90%

// query Give cytotoxicity at 7.5 µM for CC(C)(C)c1cc(/C=N/NC(=O)CN2CCN(Cc3ccc(OCc4ccccc4)cc3)CC2)c(O)c(C(C)(C)C)c1
// result 97%

// query Name the recorded cytotoxicity at 7.5 µM of the item COc1ccc(OC)c(CN2CCN(CC(=O)N/N=C/c3cc(C(C)(C)C)cc(C(C)(C)C)c3O)CC2)c1 in your answer.
// result 53%
